Just for reference, patent US12605397B2 is where these values come from.

Tested on: A375 cells
Assay: Survival assay (MTT), A375
Assay type: cell-based, human
Test Context: Homo sapiens, A-375; A375, Malignant Melanoma; 72 hours, MTT
pIC50: −log10 of the molar value.
Readout: pIC50

Answered cases to consult:
Query: Would you kindly share the measured pIC50 for Nc1nc(=O)n([C@H]2C[C@H](O)[C@@H](CO)O2)cc1C=O ?
Result: 5.50

Query: // next record Nc1nc(=O)n([C@H]2C[C@H](O)[C@@H](CO)O2)cc1C(=O)O [2d5caC, 5-carboxy-2′-deoxycytidine, reference compound]
Result: < 4.60

Others:
Query: Would you kindly share the measured pIC50 for Cn1nnc2c(C(N)=O)ncn2c1=O [Temozolomide, reference compound] ?
Result: < 4.60

Query: // next record Nc1nc(=O)n([C@H]2C[C@H](O)[C@@H](CO)O2)cc1CO [2d5hmC, 5-hydroxymethyl-2′-deoxycytidine]
Result: < 4.60
